SYSTEM_UNDER_TEST: NADPH oxidase 5 (Homo sapiens)
PROCEDURE_SUMMARY: NOX5-dependent H2O2 signal modulators, primary screen, NOX inhibitor project, cell-based, HEK293-NOX5, Amplex Red fluorescence (AID 1161)
ASSAY_CONTEXT: HEK293-NOX5, ionomycin, 45 min, higher = more signal
Please provide measured z-score for the entries that follow.

**Query** // z-score lookup, key: CC(=O)NCCCC[C@@H]1NC(=O)[C@@H]2C[C@H](C(=O)NCCCCCCN(C)C)[C@H](c3ccc(O)cc3)N2C1=O
**Result** 0.253

**Query** // z-score lookup, key: C[C@@H]1CC[C@H]2C(=O)N3[C@@H](CC[C@@H](C)[C@@H]3c3cccc(N4CCOCC4)c3)C(=O)N2[C@H]1c1cccc(Br)c1
**Result** 0.717

**Query** // z-score lookup, key: O=C1c2ccccc2[C@](Cc2ccccc2I)(C(=O)O)[C@H](c2ccc(CO)cc2)N1C1CCCCC1
**Result** -0.473

**Query** // z-score lookup, key: CSCC[C@@H]1NC(=O)CC=C[C@@H](C)COC(=O)[C@H](CCSC)NC(=O)CC=C[C@@H](C)COC1=O
**Result** 1.5

**Query** // z-score lookup, key: COc1cccc([C@H]2N[C@H](C(=O)O)CC[C@@H]2C)c1
**Result** 0.125

**Query** // z-score lookup, key: [N-]=[N+]=NCc1ccccc1C[C@@]1(C(=O)O)N=C(c2ccc(OCCCO)cc2)O[C@@H]1c1ccccc1N=[N+]=[N-]
**Result** 0.819

**Query** // z-score lookup, key: CCCN1C(=O)[C@@]2(CCS(=O)(=O)c3ccccc3)N=C(c3ccc(OCCCO)cc3)O[C@H]2c2ccccc21
**Result** -1.74

**Query** // z-score lookup, key: C=CCNC(=O)[C@H]1[C@@H]2C(=O)O[C@@H](c3ccccc3)[C@@H](c3ccccc3)N2[C@@H](c2ccccc2OCCO)[C@]12C(=O)N(C(=O)OCCOC)c1ccc(C#CCC(C(=O)OC)C(=O)OC)cc12
**Result** 0.521

**Query** // z-score lookup, key: Cc1ccc(S[C@]2(C(=O)NC3CC3)CC(=O)N(Cc3cc(C(F)(F)F)cc(C(F)(F)F)c3)[C@@H]2c2ccc(CO)cc2)cc1
**Result** 1.78

**Query** // z-score lookup, key: O=C(CS)NCCCCCCNC(=O)[C@@H]1C[C@@H]2C(=O)N[C@@H](Cc3ccccc3)C(=O)N2[C@@H]1c1ccc(O)cc1
**Result** 0.729

**Query** // z-score lookup, key: C=CCNC(=O)[C@H]1[C@@H]2C(=O)O[C@@H](c3ccccc3)[C@@H](c3ccccc3)N2[C@@H](c2ccc(O)cc2)[C@]12C(=O)Nc1ccc(C#CCNC(N)=O)cc12
**Result** 0.1

**Query** // z-score lookup, key: C[N+](C)(C)CCCC[C@@H]1NC(=O)[C@H]2C[C@@H](C(=O)NCc3ccc(F)cc3)[C@@H](c3cccc(OCCO)c3)N2C1=O
**Result** 1.53

**Query** // z-score lookup, key: COc1ccc(CCN2C(=O)[C@@]3(c4ccc([N+](=O)[O-])cc4)CC(=O)N(CC45CC6CC(CC(C6)C4)C5)[C@@H]3c3ccc(CO)cc32)cc1
**Result** 1.43
